assay: In vivo food effects study in healthy subjects (Test Example 3); set-up: species or system human (healthy male subjects); conditions: male, human, plasma, po, 300 mg, after Test Formulation 300 mg single oral, fasting state, N = 23, Mean ± SD, read-out: AUC0-t of SNAC
measured.endpoint: AUC(0-t) (ng·h/mL)

>>> print(df.to_string())
                                   compound  measured_endpoint  units_symbol  observed_value
0  O=C([O-])CCCCCCCNC(=O)c1ccccc1O.[Na+] [SNAC, sodium 8-(salicylamido)caprylate]           AUC(0-t)       ng·h/mL            1250

* * *

experiment: In vivo food effects study in healthy subjects (Test Example 3); parameters: species or system human (healthy male subjects); conditions: male, human, plasma, po, 300 mg, after Test Formulation 300 mg single oral, after a high-fat meal, N = 24, Mean ± SD, read-out: AUC0-∞ of SNAC
measured.endpoint: AUC(0-inf) (ng·h/mL)

                                   compound  units_symbol  observed_value
0  O=C([O-])CCCCCCCNC(=O)c1ccccc1O.[Na+] [SNAC, sodium 8-(salicylamido)caprylate]       ng·h/mL            1550

* * *

Test: Pharmacokinetics study in male cynomolgus monkeys (Test Example 1)
Type: in vivo
Conditions: cynomolgus monkey, plasma, po, 300 mg/animal, after Formulation 2 (2 tablets, 300 mg/animal) PO, high fat diet, mean ± SD, n = 8, read-out: Tmax of SNAC in plasma
Protocol: Eight male cynomolgus monkeys were administered by single oral gavage, including 4 cycles, 5 days per cycle, 20 days in total (see Table 4 for the protocol). The animals in cycle I and II were fasted before administration, while the animals in cycle III and IV were given high-fat food before administration. […] Only abiraterone was detected for those given reference preparation, while abiraterone and SNAC were both detected for those given test formulations. […]
measured.endpoint: Tmax

>>> df
                                   compound  observed_value
0  O=C([O-])CCCCCCCNC(=O)c1ccccc1O.[Na+] [SNAC, sodium 8-(salicylamido)caprylate]          2.88 h

* * *

assay: In vivo food effects study in healthy subjects (Test Example 3); parameters: species or system human (healthy male subjects); conditions: male, human, plasma, po, 300 mg, after Test Formulation 300 mg single oral, after a high-fat meal, N = 24, Mean ± SD, read-out: MRT0-t of SNAC
measured.endpoint: MRT last

                                   compound  observed_value
0  O=C([O-])CCCCCCCNC(=O)c1ccccc1O.[Na+] [SNAC, sodium 8-(salicylamido)caprylate]          2.28 h

* * *

assay: Pharmacokinetics study in male cynomolgus monkeys (Test Example 1); type: in vivo; conditions: cynomolgus monkey, plasma, po, 300 mg/animal, after Formulation 2 (2 tablets, 300 mg/animal) PO, high fat diet, mean ± SD, n = 8, read-out: Cmax of SNAC in plasma
measured.endpoint: Cmax (ng/mL)

>>> df
                                   compound  measured_endpoint  units_symbol  observed_value
0  O=C([O-])CCCCCCCNC(=O)c1ccccc1O.[Na+] [SNAC, sodium 8-(salicylamido)caprylate]               Cmax         ng/mL            4660

* * *

test: In vivo food effects study in healthy subjects (Test Example 3); parameters: species or system human (healthy male subjects); settings: male, human, plasma, po, 300 mg, after Test Formulation 300 mg single oral, fasting state, N = 23, median, read-out: Tmax of SNAC
measured.endpoint: Tmax (min)

In [3]: df
Out[3]:
                                   compound  measured_endpoint  units_symbol  observed_value
0  O=C([O-])CCCCCCCNC(=O)c1ccccc1O.[Na+] [SNAC, sodium 8-(salicylamido)caprylate]               Tmax           min              30

* * *

test: In vivo pharmacokinetics study in healthy subjects, 75-450 mg single dose, fasting (Test Example 2); design: species or system human (healthy male subjects); details: human, plasma; after Formulation 5, dose group A 75 mg (equal SNAC content), single oral, fasting, healthy male subjects, N = 16; Mean ± SD; read-out: AUC0-∞ of SNAC
measured.endpoint: AUC(0-inf) (ng·h/mL)

In [3]: df
Out[3]:
                                   compound  units_symbol  observed_value
0  O=C([O-])CCCCCCCNC(=O)c1ccccc1O.[Na+] [SNAC, sodium 8-(salicylamido)caprylate]       ng·h/mL             295

* * *

assay: In vivo pharmacokinetics study in healthy subjects, 75-450 mg single dose, fasting (Test Example 2); set-up: species or system human (healthy male subjects); conditions: human, blood; after Formulation 5, dose group B 150 mg (equal SNAC content), single oral, fasting, healthy male subjects, N = 15; Mean ± SD; read-out: MRT0-∞ of SNAC
measured.endpoint: MRT inf (h)

                                   compound  measured_endpoint  units_symbol  observed_value
0  O=C([O-])CCCCCCCNC(=O)c1ccccc1O.[Na+] [SNAC, sodium 8-(salicylamido)caprylate]            MRT inf             h            1.32

* * *

experiment: In vivo food effects study in healthy subjects (Test Example 3); set-up: species or system human (healthy male subjects); conditions: male, human, plasma, po, 300 mg, after Test Formulation 300 mg single oral, fasting state, N = 23, Mean ± SD, read-out: MRT0-t of SNAC
measured.endpoint: MRT last (h)

>>> print(df.to_string())
                                   molecule  units_symbol  observed_value
0  O=C([O-])CCCCCCCNC(=O)c1ccccc1O.[Na+] [SNAC, sodium 8-(salicylamido)caprylate]             h            1.59

* * *

test: In vivo food effects study in healthy subjects (Test Example 3); parameters: species or system human (healthy male subjects); settings: male, human, plasma, po, 300 mg, after Test Formulation 300 mg single oral, after a high-fat meal, N = 24, Mean ± SD, read-out: AUC0-t of SNAC
measured.endpoint: AUC(0-t) (ng·h/mL)

In [3]: df
Out[3]:
                                   compound  measured_endpoint  observed_value
0  O=C([O-])CCCCCCCNC(=O)c1ccccc1O.[Na+] [SNAC, sodium 8-(salicylamido)caprylate]           AUC(0-t)            1540

* * *

assay: In vivo food effects study in healthy subjects (Test Example 3); design: species or system human (healthy male subjects); settings: male, human, plasma, po, 300 mg, after Test Formulation 300 mg single oral, after a high-fat meal, N = 24, Mean ± SD, read-out: MRT0-∞ of SNAC
measured.endpoint: MRT inf (h)

In [3]: df
Out[3]:
                                   compound  observed_value
0  O=C([O-])CCCCCCCNC(=O)c1ccccc1O.[Na+] [SNAC, sodium 8-(salicylamido)caprylate]            2.36

* * *

Test: Pharmacokinetics study in male cynomolgus monkeys (Test Example 1)
Assay type: in vivo
Settings: cynomolgus monkey, plasma, po, 300 mg/animal, after Formulation 2 (2 tablets, 300 mg/animal) PO, fasting, mean ± SD, n = 8, read-out: AUC(0-∞) of SNAC in plasma
Method: Eight male cynomolgus monkeys were administered by single oral gavage, including 4 cycles, 5 days per cycle, 20 days in total (see Table 4 for the protocol). The animals in cycle I and II were fasted before administration, while the animals in cycle III and IV were given high-fat food before administration. […] Only abiraterone was detected for those given reference preparation, while abiraterone and SNAC were both detected for those given test formulations. […]
measured.endpoint: AUC(0-inf) (ng·h/mL)

                                   compound  observed_value
0  O=C([O-])CCCCCCCNC(=O)c1ccccc1O.[Na+] [SNAC, sodium 8-(salicylamido)caprylate]           40900

* * *

assay: In vivo pharmacokinetics study in healthy subjects, 75-450 mg single dose, fasting (Test Example 2); set-up: species or system human (healthy male subjects); conditions: human, plasma; after Formulation 5, dose group A 75 mg (equal SNAC content), single oral, fasting, healthy male subjects, N = 16; Mean ± SD; read-out: Vz/F of SNAC
measured.endpoint: Vd/F

                                   compound  observed_value
0  O=C([O-])CCCCCCCNC(=O)c1ccccc1O.[Na+] [SNAC, sodium 8-(salicylamido)caprylate]          1280 L

* * *

Test: In vivo pharmacokinetics study in healthy subjects, 75-450 mg single dose, fasting (Test Example 2)
Design: species or system human (healthy male subjects)
Details: human, plasma; after Formulation 5, dose group D 450 mg (equal SNAC content), single oral, fasting, healthy male subjects, N = 15; Mean ± SD; read-out: Vz/F of SNAC
Method: To study the pharmacokinetic characteristics of 75 mg, 150 mg, 300 mg and 450 mg doses of abiraterone acetate tablets in healthy subjects after a single oral administration under fasting state. A single-center, open-label, sequential trial design was applied. […] The blood concentration of abiraterone at different time points after dosing was determined by HPLC-MS/MS. Pharmacokinetic parameters were calculated using non-compartmental model and statistically analyzed. […]
measured.endpoint: Vd/F (L)

                                   molecule  measured_endpoint  observed_value
0  O=C([O-])CCCCCCCNC(=O)c1ccccc1O.[Na+] [SNAC, sodium 8-(salicylamido)caprylate]               Vd/F            1520
